# studyTarget: human polymorphonuclear leukocyte elastase (Homo sapiens)
# Construct: Crude extract of human polymorphonuclear leukocytes (PMN) containing elastase activity; endogenous in cells; host or cells: human polymorphonuclear leukocytes (crude extract)
# Sequence (P08246 30-247 limits assumed): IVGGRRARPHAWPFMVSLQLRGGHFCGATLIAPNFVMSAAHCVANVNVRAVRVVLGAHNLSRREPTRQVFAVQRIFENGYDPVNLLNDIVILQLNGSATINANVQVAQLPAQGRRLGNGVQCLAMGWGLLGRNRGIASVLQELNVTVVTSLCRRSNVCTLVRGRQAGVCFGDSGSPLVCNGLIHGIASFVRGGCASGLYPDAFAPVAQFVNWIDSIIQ
# measurementProtocol: Inhibition of human polymorphonuclear leukocyte (granulocyte) elastase via hydrolysis of Boc-AAPAN or Boc-AAPVN
# Type: biochemical
# measurementConditions: pH 7.5, Table III, (per mole per second); read-out: kobs/I, second order rate constant of inactivation of the enzyme
assayReadout: kinact/KI (M⁻¹ s⁻¹)

Guide cases for kinact/KI, answers given:
CCC1(CC)C(=O)N(C(=O)NCc2ccccc2)C1n1c(=O)cc[nH]c1=O (stereo not shown) :: 351
CCC1(CC)C(=O)N(C(=O)NCc2ccc(-c3ccccc3)cc2)C1OCC(=O)O (stereo not shown) :: 2900

P. CCC1(CC)C(=O)N(C(=O)NCc2ccc(OCc3ccccc3)cc2)C1Oc1ccc(C(=O)O)cc1 (stereo not shown)
Q. CCC1(CC)C(=O)N(C(=O)NCc2ccc(C(=O)N3CCOCC3)cc2)C1Oc1ccc(C(=O)O)cc1 (stereo not shown) [Table III: O-(4-COOHPh); drawing 43]
R. CCC1(CC)C(=O)N(C(=O)NCc2ccc3c(c2)CCCC3)C1Oc1ccc(C(=O)O)cc1 (stereo not shown)
Problem: Sort entries by kinact/KI from minimum to maximum value. Write out the labels following the order that was asked for.
Solution: Q, P, R

A. CCC1(CC)C(=O)N(C(=O)NCc2ccc(C)cc2)C1Oc1ccc(C(=O)O)c(O)c1 (stereo not shown)
B. CCC1(CC)C(=O)N(C(=O)NCc2ccccc2)C1n1cnc2ccccc21 (stereo not shown)
Problem: Endpoint returns the identifier whose kinact/KI is numerically larger, either A or B . State your choice using its label.
Solution: A

A. CCC1(CC)C(=O)N(C(=O)NCc2ccc(OC)c(C)c2)C1Oc1ccc(C(=O)O)cc1 (stereo not shown)
B. CCC1(CC)C(=O)N(C(=O)NCc2ccc(C)c(C)c2)C1Oc1ccc(C(=O)O)cc1 (stereo not shown)
C. CCC1(CC)C(=O)N(C(=O)NCc2ccc3cc(C(=O)O)ccc3c2)C1Oc1ccc(C(N)=O)cc1 (stereo not shown)
D. CCC1(CC)C(=O)N(C(=O)NCc2ccccc2)C1Sc1nnnn1C (stereo not shown)
Problem: hey, can you rank those molecules up there by kinact/KI? biggest number first please Record the ranking as a list of labels in the requested order.
Solution: C, B, A, D
